Entries annotated with measured GI50
system: UO-31; test: NCI tumour cell line growth inhibition, 48 h
The source made the active and inactive calls. Rule as the data show it: active = GI50 up to about 1.1 µM and inactive = higher.

- COMPOUND: "CN(C)c1ccc(/C=C(\\NC(=O)c2ccccc2)c2nc3ccccc3c(=O)o2)cc1"
  GI50: "> 100 µM (inactive)"
- COMPOUND: "C1CSCCCSCCSCCCSC1"
  GI50: "> 100 µM (inactive)"
- COMPOUND: "CCOC(=O)C1=C(C)N(NC(=O)Nc2ccccc2)C2(N)N(NC(=O)Nc3ccccc3)C(C)=C(C(=O)OCC)C12C(=O)OCC (centres undefined)"
  GI50: "61.7 µM (inactive)"
- COMPOUND: "Clc1ccc(C2N3CCCCC3[C@@H]3c4[nH]c5ccccc5c4CCN23)cc1 (some centres undefined)"
  GI50: "49.7 µM (inactive)"
- COMPOUND: "Cn1cccc1/C=C/c1cc(Br)c(/C=C/c2cccn2C)cc1Br"
  GI50: "15.2 µM (inactive)"
- COMPOUND: "Cn1c2ccc(F)cc2c2ccc3c(c21)C(=O)C=CC3=O"
  GI50: "7.52 µM (inactive)"
- COMPOUND: "CC(=O)O[C@H]1C#C/C=C\\C#CC[C@@H]2C(=O)N(C(=O)OC(C)(C)C)[C@@H]12"
  GI50: "2.91 µM (inactive)"
- COMPOUND: "COc1ccc(C2=Nn3c(nnc3-c3ccccc3)S/C2=C\\c2ccc(-c3ccc([N+](=O)[O-])cc3)o2)cc1"
  GI50: "36.4 µM (inactive)"
- COMPOUND: "CCOC(=O)Cc1c(Cc2[nH]c(C(=O)OCc3ccccc3)c(CC(=O)OCC)c2CC(=O)OCC)[nH]c(C(=O)OCc2ccccc2)c1CC(=O)OCC"
  GI50: "67.8 µM (inactive)"
